test-target: Eg5 motor protein (Homo sapiens, UniProt P52732)
Construct: Eg5 motor domain (amino acids 1-368) was cloned into pET22b; His-tag (C)
Sequence (P52732 1-368): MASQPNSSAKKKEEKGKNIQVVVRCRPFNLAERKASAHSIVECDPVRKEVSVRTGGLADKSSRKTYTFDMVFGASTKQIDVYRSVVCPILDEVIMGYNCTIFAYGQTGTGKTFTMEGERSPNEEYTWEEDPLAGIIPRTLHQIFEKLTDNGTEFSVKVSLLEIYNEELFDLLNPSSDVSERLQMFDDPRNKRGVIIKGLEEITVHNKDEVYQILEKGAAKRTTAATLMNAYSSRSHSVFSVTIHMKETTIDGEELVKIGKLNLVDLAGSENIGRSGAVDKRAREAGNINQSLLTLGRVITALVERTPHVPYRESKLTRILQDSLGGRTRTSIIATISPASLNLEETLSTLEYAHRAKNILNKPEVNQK
protocol-notes: microtubule-activated Eg5 motor protein ATPase assay (malachite green, OD630)
condition-info: microtubule-stimulated KSP ATPase activity
Experimental: Eg5 motor domain (amino acids 1-368) was cloned into pET22b and expressed in Escherichia coli BL21 (DE3) cells. […] Inhibitory activities of the compounds were measured using a microtubule-activated ATPase assay. […] After 10 min the absorbance was measured at 630 nm using a microplate reader (BIO-RAD iMark^TM). […] All conditions were performed in three independent duplicate experiments and averaged data points are shown as mean values ± SD, IC50 values were calculated with SPSS17.0 software. […]
compounds and their reported IC50
Hi! Could you send only the number? It should be in µM, unit omitted.

Before answering, review these 3 worked examples.
COC(=O)c1[nH]c(C2NC(=S)NC(C)=C2C(=O)c2ccccc2)c(C(=O)OC)c1C (centres unmarked) [D14] = 71.9
CCOC(=O)c1c(C2NC(=O)NC(C)=C2C(=O)Nc2ccccc2C)[nH]c(C(=O)OC)c1C (centres unmarked) [D2] = 67.3
CCOC(=O)c1c(C2NC(=O)NC(C)=C2C(=O)Nc2ccccc2)[nH]c(C(=O)OC)c1C (centres unmarked) [D10] = 64.4

Query: State its IC50: CCOC(=O)C1=C(C)NC(=S)NC1c1cccc(O)c1 (centres unmarked) [Monastrol, monastrol, reference compound]
Result: 51.7

Query: Determine from records and report IC50 for CCOC(=O)c1c(C2NC(=O)NC(C)=C2C(=O)Nc2ccccc2OC)[nH]c(C(=O)OC)c1C (centres unmarked) [D1]
Result: 38.7
